test system: primary rat mixed cortical cells; assay: In vitro myelination assay (MBP positive myelin strands, fold myelin pixels above background); assay type: cell-based; details: Rattus norvegicus, 10.0 μM compound; read-out: Fold myelin pixels above background relative to baseline of no added compound
For each of the compounds below, state its fold induction at 10 µM.

In the examples that follow, each entry is paired with its recorded fold induction at 10 µM.
compound	reported-result
Fc1cc(F)cc(-n2cnc(Nc3cc(N4CC(N5CCOCC5)C4)cc(N4CC(N5CCOCC5)C4)c3)n2)c1	1 to 10
Cc1cc(Nc2ncn(-c3cc(F)cc(F)c3)n2)cc(N2CCN(CC(C)(C)O)C(C)C2)c1 (stereo not shown)	1 to 10
Cc1cc(Nc2ncn(-c3cc(F)cc(F)c3)n2)cc(N2CCCC2CN2CCOCC2)c1 (stereo not shown)	≤ 1
CCOC1CCN(c2cc(C)cc(Nc3ncn(-c4cc(F)cc(F)c4)n3)c2)CC1	10 to 100

Would you mind giving fold induction at 10 µM for every compound in the list below?
1. [2H]C1([2H])N(c2cc(C)cc(Nc3ncn(-c4cc(F)cc(F)c4)n3)c2)C([2H])([2H])C([2H])([2H])N(C2CCC2)C1([2H])[2H]
2. COC1(CNc2cc(C)cc(Nc3ncn(-c4cc(F)cc(F)c4)n3)c2)CCC1
3. Cc1cc(Nc2ncn(-c3cc(F)cc(F)c3)n2)cc(N2CCC3(CCO3)C2)c1 (stereo not shown)

1: 1 to 10; 2: 10 to 100; 3: ≤ 1
